Data provenance: PubChem BioAssay (EPA / NIEHS)

- Measurement protocol: ATG_NFI_CIS: Attagene CIS-FACTORIAL HepG2 Assay for human Nuclear Factor I (NFI) (AID 2282989)
- Run parameters: HepG2 cis-regulatory reporter, NFI response element transcription; actives raise or lower the signal
- Procedure: ATG_CIS is a cell-based, multiplexed-readout assay that uses HepG2, a human liver cell line, with measurements taken at 24 hours after chemical dosing in a 24-well plate.ATG_NFI_CIS is one of 52 assay component(s) measured or calculated from the ATG_CIS assay. […] This assay endpoint, ATG_NFI_CIS, was analyzed with bidirectional fitting relative to DMSO as the negative control and baseline of activity. […]
Activity calls are given as the source filed them. The calls were made as follows: active = hit-call score of the fitted dose curve at least 0.9, where 1 is the maximum; inactive = score below 0.9.
Possible outcomes: Y for active, N for inactive

[[record]]
compound = "CCOP(=S)(OCC)Oc1nc(Cl)c(Cl)cc1Cl"
class_assignment = "Y"

[[record]]
compound = "C[C@H]1O[C@@H](O[C@H]2[C@@H](O)C[C@H](O[C@H]3[C@@H](O)C[C@H](O[C@H]4CC[C@@]5(C)[C@H](CC[C@@H]6[C@@H]5CC[C@]5(C)[C@@H](C7=CC(=O)OC7)CC[C@]65O)C4)O[C@@H]3C)O[C@@H]2C)C[C@H](O)[C@@H]1O"
class_assignment = "Y"

[[record]]
compound = "CC(=O)C(Cl)C(=O)N(C)C (stereo not drawn)"
class_assignment = "N"

[[record]]
compound = "CC(C)c1cccc(C(C)C)c1O"
class_assignment = "N"

[[record]]
compound = "CCC(C)c1cccc(C(C)CC)c1O (stereo not drawn)"
class_assignment = "N"

[[record]]
compound = "Oc1c(I)cc(I)cc1I"
class_assignment = "N"

[[record]]
compound = "CC(=[OH+])/C=C(/C)[O-].CC(=[OH+])/C=C(/C)[O-].CC(=[OH+])/C=C(/C)[O-].[Al]"
class_assignment = "N"

[[record]]
compound = "CC(C)(C)c1cc(O)ccc1O"
class_assignment = "N"

[[record]]
compound = "C[C@@H]1C[C@@H]([C@H](O)CC2CC(=O)NC(=O)C2)C(=O)[C@@H](C)C1"
class_assignment = "N"

[[record]]
compound = "CCN1CCC2(CC1)COc1cc3c(cc12)N(C(=O)c1ccc(-c2ccc(-c4nnc(C)o4)cc2C)cc1)CC3"
class_assignment = "N"

[[record]]
compound = "COP(=O)(OC)O/C(=C\\Cl)c1cc(Cl)c(Cl)cc1Cl"
class_assignment = "N"

[[record]]
compound = "C(=NC1CCCCC1)=NC1CCCCC1"
class_assignment = "N"

[[record]]
compound = "CCOP(OCC)OCC"
class_assignment = "N"

